- Target entity: human plasma kallikrein (Homo sapiens (Human))
- Sequence (P03952 whole entry, looked up): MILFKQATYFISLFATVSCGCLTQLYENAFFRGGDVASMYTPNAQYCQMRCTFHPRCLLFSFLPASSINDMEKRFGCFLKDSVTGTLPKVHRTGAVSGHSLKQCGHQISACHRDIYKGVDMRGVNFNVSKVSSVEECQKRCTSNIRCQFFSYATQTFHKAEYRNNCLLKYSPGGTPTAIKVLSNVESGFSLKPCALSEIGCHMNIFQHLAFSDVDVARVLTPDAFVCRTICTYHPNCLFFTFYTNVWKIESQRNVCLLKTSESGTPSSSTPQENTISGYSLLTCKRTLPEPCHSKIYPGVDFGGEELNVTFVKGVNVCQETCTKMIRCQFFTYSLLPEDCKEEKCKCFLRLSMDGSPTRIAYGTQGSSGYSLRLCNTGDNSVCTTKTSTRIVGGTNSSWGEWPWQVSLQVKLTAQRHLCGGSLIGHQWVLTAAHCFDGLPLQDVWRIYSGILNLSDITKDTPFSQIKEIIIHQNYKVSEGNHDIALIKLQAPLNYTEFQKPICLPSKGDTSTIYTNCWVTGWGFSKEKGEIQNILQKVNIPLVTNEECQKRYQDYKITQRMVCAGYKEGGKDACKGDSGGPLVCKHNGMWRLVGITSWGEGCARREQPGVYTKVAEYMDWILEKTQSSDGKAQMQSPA
- Sequence (P03952 whole entry partner, looked up): as the sequence (P03952 whole entry, looked up) above
- Assay name: Plasma kallikrein activity assay (chromogenic substrate S2302)
- Test conditions: 2 nM kallikrein, 80 μM S2302, 30° C., pH 7.8; Cheng-Prusoff; values given as bins
Measurement type: Ki

Ask: Supply measured Ki of N#Cc1cccc(C(N)(CCC2CC2)c2ccc(F)c(NC(=O)c3cc(C(F)(F)F)nn3-c3cccc(C(N)=O)c3)c2)c1 (single isomer, unassigned; (-)) [Compound 267c] in your reply.
Result: > 100 nM
